Data origin, for the record: patent US12570642B2

System: GLP-1R (Homo sapiens, UniProt P43220)
Sequence (P43220 24-463): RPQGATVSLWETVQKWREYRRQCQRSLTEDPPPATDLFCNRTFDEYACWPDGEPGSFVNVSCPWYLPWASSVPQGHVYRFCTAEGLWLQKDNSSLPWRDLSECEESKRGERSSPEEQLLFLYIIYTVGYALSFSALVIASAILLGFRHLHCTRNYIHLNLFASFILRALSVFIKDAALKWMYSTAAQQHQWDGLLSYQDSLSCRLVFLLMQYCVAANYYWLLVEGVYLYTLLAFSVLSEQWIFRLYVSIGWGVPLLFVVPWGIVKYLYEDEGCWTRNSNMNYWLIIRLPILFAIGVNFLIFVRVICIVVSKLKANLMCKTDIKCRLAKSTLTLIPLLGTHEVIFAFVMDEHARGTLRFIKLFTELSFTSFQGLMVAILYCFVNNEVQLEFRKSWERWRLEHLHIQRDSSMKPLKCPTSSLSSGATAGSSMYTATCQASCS
Assay Overview: GLP-1R Activation - cAMP Assay
Type: cell-based
Assay Context: cAMP increase in CHO cells stably expressing GLP-1R; each compound run on one of the two cAMP assays (Assay 1 or Assay 2, not specified)
Parameter Measured: log10 EC50 (log10 of the value in pM)

>  <Compound>
CC1(C)COCC1n1c(Cc2cc(F)c(-c3ccc(F)c(OCc4ccc(C#N)cc4F)n3)cc2Cl)nc2c(F)cc(C(=O)O)cc21 (stereo not drawn)

>  <log10 EC50>
1.88

$$$$
>  <Compound>
N#Cc1ccc(COc2cccc(-c3cc(F)c(Cc4nc5ccc(C(=O)O)cc5n4[C@@H]4COCC45CC5)cc3F)n2)c(F)c1 (single isomer, unassigned)

>  <log10 EC50>
2.61

$$$$
>  <Compound>
COCCn1c(Cc2c(F)cc(-c3cccc(OCc4ccc(-n5ccnn5)cc4Cl)n3)c(F)c2F)nc2ccc(C(=O)O)cc21

>  <log10 EC50>
1.91

$$$$
>  <Compound>
COCCn1c(Cc2cc(F)c(-c3cccc(OCc4ccc(-c5cccnc5C)cc4F)n3)cc2F)nc2ccc(C(=O)O)cc21

>  <log10 EC50>
4.62

$$$$
>  <Compound>
COCCn1c(Cc2cc(F)c(-c3cccc(OCc4cnc(Cl)cn4)n3)cc2F)nc2ccc(C(=O)O)cc21

>  <log10 EC50>
4.00

$$$$
>  <Compound>
COC[C@H]1COC[C@H]1n1c(Cc2cc(F)c(-c3ccc(F)c(OCc4ccc(C(F)(F)F)cc4)n3)cc2F)nc2ccc(C(=O)O)cc21

>  <log10 EC50>
2.04

$$$$

* * *

System: GLP-1R (Homo sapiens, UniProt P43220)
Assay Overview: GLP-1R Activation - cAMP Assay
Assay type: cell-based
Assay Context: cAMP increase in CHO cells stably expressing GLP-1R; each compound run on one of the two cAMP assays (Assay 1 or Assay 2, not specified)

>  <Compound>
CC1(C)COC[C@H]1n1c(Cc2cc(F)c(-c3ccnc(OCc4ccc(C#N)cc4F)n3)cc2F)nc2ccc(C(=O)O)cc21

>  <EC50, pM>
508

$$$$
>  <Compound>
COC(=O)N1Cc2ccc(COc3cccc(-c4cc(F)c(Cc5nc6ccc(C(=O)O)cc6n5C[C@@H]5CCO5)cc4F)n3)cc2C1

>  <EC50, pM>
111

$$$$
>  <Compound>
N#Cc1ccc(COc2cccc(-c3cc(F)c(Cc4nc5ccc(C(=O)O)cc5n4C4CCS(=O)(=O)C4)cc3F)n2)c(F)c1 (stereo not drawn)

>  <EC50, pM>
40900

$$$$

* * *

In this section, each of the compounds is paired with its reported EC50.
System: GLP-1R (Homo sapiens, UniProt P43220)
Assay Overview: GLP-1R Activation - cAMP Assay
Format: cell-based
Assay Context: cAMP increase in CHO cells stably expressing GLP-1R; each compound run on one of the two cAMP assays (Assay 1 or Assay 2, not specified)
Method: GLP-1R Activation—cAMP Assay 1 GLP-1R activation by compounds of the present disclosure were quantified by measuring cAMP increase in CHO cells stably expressing GLP-1R (MultiSpan product #C1267-1a). […] The tested GLP-1 compound was added to the cells in a 10-point dose response followed by a 30 minutes incubation at 37° C., 5% CO2. cAMP concentration increase was then detected using Cisbio's cAMP Gs Dynamic Kit (product #62AM4PEC) according to the manufacturer's protocol. […]
Parameter Measured: EC50

>  <Compound>
N#Cc1ccc(COc2cccc(-c3cc(F)c(Cc4nc5ccc(C(=O)O)cc5n4[C@H]4COC[C@@H]4C4CC4)cc3F)n2)c(F)c1 [Example 189]

>  <Test Value>
0.149 nM

$$$$
>  <Compound>
CC1(C)COC[C@H]1n1c(Cc2cc(F)c(-c3nccc(OCc4ccc(Cl)cc4F)n3)cc2F)nc2ccc(C(=O)O)cc21 [Example 405]

>  <Test Value>
0.337 nM

$$$$
>  <Compound>
COCCn1cc(-c2ccc(COc3cccc(-c4cc(F)c(Cc5nc6ccc(C(=O)O)cc6n5CCOC)cc4F)n3)c(F)c2)cn1 [Example 106]

>  <Test Value>
2.22 nM

$$$$
